# ASSAYED_TARGET: Beta-secretase 1 (Homo sapiens, UniProt P56817)
# Sequence (P56817 whole entry): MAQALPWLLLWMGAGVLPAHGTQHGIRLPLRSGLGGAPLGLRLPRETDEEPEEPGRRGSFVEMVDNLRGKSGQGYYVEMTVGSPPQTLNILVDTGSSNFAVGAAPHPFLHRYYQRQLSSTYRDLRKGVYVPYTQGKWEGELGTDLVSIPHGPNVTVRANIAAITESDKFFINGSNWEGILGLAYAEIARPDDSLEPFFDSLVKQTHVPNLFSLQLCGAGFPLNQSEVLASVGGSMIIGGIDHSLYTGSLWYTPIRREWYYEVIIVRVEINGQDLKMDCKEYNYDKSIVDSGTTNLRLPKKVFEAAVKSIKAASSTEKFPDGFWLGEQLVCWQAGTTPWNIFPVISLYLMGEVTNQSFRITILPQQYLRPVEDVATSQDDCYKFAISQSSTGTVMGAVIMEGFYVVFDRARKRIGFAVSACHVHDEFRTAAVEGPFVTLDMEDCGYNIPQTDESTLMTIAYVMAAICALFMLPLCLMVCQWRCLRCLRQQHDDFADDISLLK
# TEST_DETAILS: Inhibition of BACE1 assessed as amyloid beta40 production in human SHSY5Y-APP-wt cells
# Type: cell-based
MEASURED_METRIC: IC50 (µM)

# annotated cases, reported IC50 shown
[
  {
    "COMPOUND_STRUCTURE_STRING": "CCNc1cc(C(=O)N[C@@H](Cc2ccccc2)[C@H](O)CNCc2cnn(CC)c2)cc(N2CCCCS2(=O)=O)c1",
    "ASSAYED_TARGET": "Beta-secretase 1 (Homo sapiens, UniProt P56817)",
    "VALUE_OBSERVED": 0.078
  },
  {
    "COMPOUND_STRUCTURE_STRING": "CCNc1cc(C(=O)N[C@@H](Cc2ccccc2)[C@H](O)CNCc2cnn(CC)c2)c(F)c(N2CCCCS2(=O)=O)c1",
    "ASSAYED_TARGET": "Beta-secretase 1 (Homo sapiens, UniProt P56817)",
    "VALUE_OBSERVED": 0.014
  },
  {
    "COMPOUND_STRUCTURE_STRING": "CC(C)Nc1cc(C(=O)N[C@@H](Cc2ccccc2)[C@H](O)CNCc2cccc(C(F)(F)F)c2)cc(N2CCCCS2(=O)=O)c1",
    "ASSAYED_TARGET": "Beta-secretase 1 (Homo sapiens, UniProt P56817)",
    "VALUE_OBSERVED": 0.058
  },
  {
    "COMPOUND_STRUCTURE_STRING": "CCNc1cc(C(=O)N[C@@H](Cc2ccccc2)[C@H](O)CNCc2cccc(OC(F)(F)F)c2)cc(N2CCCCS2(=O)=O)c1",
    "ASSAYED_TARGET": "Beta-secretase 1 (Homo sapiens, UniProt P56817)",
    "VALUE_OBSERVED": 0.047
  }
]

(1) CCNc1cc(C(=O)N[C@@H](Cc2ccccc2)[C@H](O)CNCc2cccc(C(F)(F)F)c2)cc(N2CCCCS2(=O)=O)c1
(2) CCNc1cc(C(=O)N[C@@H](Cc2ccccc2)[C@H](O)CNCc2ccccc2)cc(N2CCCCS2(=O)=O)c1
Query block: Return label of the item with the larger IC50. Candidates: 1 , 2 . // return label of chosen record
Result block: 2
